Data origin, for the record: patent US20260125451A1

target: BAFF (PeproTech, Cat: 310-13) (UniProt Q9Y275 134-285); test: ELISA, BAFF coated, anti-human Fc-HRP
Sequence (Q9Y275 134-285 limits assumed): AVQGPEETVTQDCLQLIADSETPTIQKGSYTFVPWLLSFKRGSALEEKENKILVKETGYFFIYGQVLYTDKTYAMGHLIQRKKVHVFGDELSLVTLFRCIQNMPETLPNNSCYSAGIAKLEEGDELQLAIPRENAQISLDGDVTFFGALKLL
attributeMeasured: EC50 relative to that of telitacicept (ratio)
Answers are plain numbers, in ratio.

In: Can you look up the measured EC50 relative to that of telitacicept of B575701 (Fc fusion, TACI-BCMA fusion protein; also called TACI-d2-BCMA-ECD-Fc) LSCRKEQGKFYDHLLRDCISCASICGQHPKQCAYFCENKLRSPGMLQMAGQCSQNEYFDSLLHACIPCQLRCSSNTPPLTCQRYCNASVTNSVKGTNADKTHTCPPCPAPEAEGAPSVFLFPPKPKDTLMISRTPEVTCVVVDVSHEDPEVKFNWYVDGVEVHNAKTKPREEQYNSTYRVVSVLTVLHQDWLNGKEYKCKVSNKALPSSIEKTISKAKGQPREPQVYTLPPSRDELTKNQVSLTCLVKGFYPSDIAVEWESNGQPENNYKTTPPVLDSDGSFFLYSKLTVDKSRWQQGNVFSCSVMHEALHNHYTQKSLSLSPGK for me?
Out: 0.5
